Target: T1, recombinant human CLL-1 extracellular domain (ECD, amino acids 65-265) fused to an N-terminal Flag (human, UniProt Q5QGZ9 65-265)
T1 construct: The construct and the K244Q SNP are stated for the immunogen; they are not written as a piece; also called huCLL-1-Flag; huCLL-1
T1 chain: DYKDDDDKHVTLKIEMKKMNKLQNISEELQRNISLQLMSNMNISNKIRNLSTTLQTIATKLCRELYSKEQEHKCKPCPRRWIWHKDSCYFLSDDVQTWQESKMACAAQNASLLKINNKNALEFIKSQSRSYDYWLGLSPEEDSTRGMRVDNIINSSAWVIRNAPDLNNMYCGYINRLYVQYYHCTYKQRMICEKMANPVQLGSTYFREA
Assay: SPR (Biacore), chimeric IgG captured by anti-human IgG, CLL-1 as analyte
READOUT_KIND: kon (M⁻¹ s⁻¹)
Hi! Could you send only the number? It should be in M⁻¹ s⁻¹, unit omitted.

Exam item: I have this binder here, ch28H12 (antibody, V domains shown, chimeric version of m28H12, human IgG; also called chimeric 28H12) VH: QVQLQQSGAELVKPGASVKLSCTASGFNIKDTYMHWVKQRPEQGLEWIGRIDPANGDTDYDPKFQGKATVTADTSSNTAYLQLSSLTSEDTAVYYCTISGPPYYVMDYWGQGTSVTVSS VL: DIQMTQSPASLAVSLGQRATISCRASQSVSSSSYSYMHWYQQKPGQPPKLLIKYASNLESGVPARFSGRGSGTDFTLNIHPVEEEDTATYYCQHSWEIPYTFGGGTRLEIK , and I need its recorded kon.
Marked response: 500000

Exam item: # get_value(readout='kon', item= ch6E7 (antibody, V domains shown, chimeric version of m6E7, human IgG; also called chimeric 6E7; Chimeric 6E7) VH: QVQLQQSGPELVKPGASVKISCKASGYSFTDYYMHWVKQSHIKSLEWIGRINPYNGAAFYSQNFKDKASLTVDKSSSTAYMELHSLTSEDSAVYYCAIERGADLEGYAMDYWGQGTSVTVSS VL: DIVLTQSPSSLIVSLGQRATISCRASQSVSTSSYNYMHWYQQKPGQPPKLLLKYASNLESGVPARFSGSGSGTDFTLNIHPVEEEDTATYYCQHSWEIPLTFGAGTKLEIK )
Marked response: 460000

Exam item: State the recorded kon for this entry: ch20B1 (antibody, V domains shown, chimeric version of m20B1, human IgG; also called chimeric 20B1; 2061 [sic]) VH: EVQLQQSGPELVKPGALVKISCKASGYTFTSYDINWLKQRPGQGLEWIGWIYPGDGTTEYNERFKGKATLTADKSSSTAYLQLSSLTSENSAVYFCARSYDYDYAMDYWGQGTSVTVSS VL: DIVLTQSPAIMSASPGEKVTMTCSASSSISYMYWYQQKPGTSPKRWIYDTSKLASGVPARFSGSGSGTSYSLTISSMEAEDAATYYCHQRSSWTFGGGTKLEIK
Marked response: 220000

Exam item: Which kon value is on record for ch21C9 (antibody, V domains shown, chimeric version of m21C9, human IgG; also called chimeric 21C9; Chimeric 21C9) VH: EVQLQQSGPELVKPGASVKMSCKASGYTFTDYYLDWVKQSHGESFEWIGRVNPYNGGTIYNQKFKGKATLTVDKSSSTAYMDLNSLTSEDSAVYYCARDHYRYDPLLDYWGQGTTLTVSS VL: DIQMTQSHKFMSTSVGDRVSITCKASQDVSTAVAWFQQKPGQSPKLLIYSPSYRYTGVPDRFTGSGSGTDFTFTISSVQAEDLAVYYCQQLYSTPYTFGGGTKLEIK ?
Marked response: 250000
